Where do these numbers come from? They come from paper PMC7142633.

Biological target: α-amylase from porcine pancreas (Sus scrofa)
Construct: A saline suspension of α-amylase from porcine pancreas; purchased Sigma Aldrich (Steinheim, Germany) Lot #SLBN9170V (catalogue number not given); host or cells: porcine pancreas (tissue-derived)
Sequence (P00690 16-511): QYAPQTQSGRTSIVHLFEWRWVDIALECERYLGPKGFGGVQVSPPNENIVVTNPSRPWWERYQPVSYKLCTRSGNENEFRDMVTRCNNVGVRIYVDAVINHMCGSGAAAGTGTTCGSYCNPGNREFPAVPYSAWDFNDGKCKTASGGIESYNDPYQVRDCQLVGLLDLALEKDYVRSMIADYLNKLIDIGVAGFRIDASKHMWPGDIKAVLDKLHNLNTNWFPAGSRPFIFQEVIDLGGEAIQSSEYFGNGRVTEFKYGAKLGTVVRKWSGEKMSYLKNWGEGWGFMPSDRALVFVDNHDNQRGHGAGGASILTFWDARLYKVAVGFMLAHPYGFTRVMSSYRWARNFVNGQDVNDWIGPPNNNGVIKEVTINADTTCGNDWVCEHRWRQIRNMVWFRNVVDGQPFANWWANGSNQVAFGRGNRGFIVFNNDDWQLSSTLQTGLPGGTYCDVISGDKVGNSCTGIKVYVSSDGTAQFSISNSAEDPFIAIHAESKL
Experiment: α-amylase enzyme activity assay, GalG2CNP conversion, UV/Vis detection of CNP at 405 nm
Assay type: biochemical
Details: (ii) Kic and Kiu by independent fit; [S] 100 µM; read-out: IC50 (Cheng−Prussoff, Equation (9))
pIC50: −log10 of the molar value.
Readout: pIC50

[[record]]
molecule = "OC[C@H]1O[C@@H](Oc2cc3c(O)cc(O)cc3[o+]c2-c2ccc(O)cc2)[C@H](O)[C@@H](O)[C@@H]1O [Plg-glc, pelargonidin-3-glucoside]"
readout_number = 4.08

[[record]]
molecule = "OC[C@H]1O[C@@H](Oc2cc3c(O)cc(O)cc3[o+]c2-c2cc(O)c(O)c(O)c2)[C@H](O)[C@@H](O)[C@@H]1O [Dpd-glc, delphinidin-3-glucoside]"
readout_number = 4.08

[[record]]
molecule = "OC[C@H]1O[C@@H](Oc2cc3c(O)cc(O)cc3[o+]c2-c2ccc(O)c(O)c2)[C@H](O)[C@@H](O)[C@@H]1O [Cyd-glc, cyanidin-3-glucoside]"
readout_number = 3.82

[[record]]
molecule = "COc1cc(-c2[o+]c3cc(O)cc(O)c3cc2O[C@@H]2O[C@H](CO)[C@@H](O)[C@H](O)[C@H]2O)ccc1O [Peo-glc, peonidin-3-glucoside]"
readout_number = 3.85


* * *

Molecular target: α-amylase from porcine pancreas (Sus scrofa)
Construct: A saline suspension of α-amylase from porcine pancreas; purchased Sigma Aldrich (Steinheim, Germany) Lot #SLBN9170V (catalogue number not given); host or cells: porcine pancreas (tissue-derived)
Sequence (P00690 16-511): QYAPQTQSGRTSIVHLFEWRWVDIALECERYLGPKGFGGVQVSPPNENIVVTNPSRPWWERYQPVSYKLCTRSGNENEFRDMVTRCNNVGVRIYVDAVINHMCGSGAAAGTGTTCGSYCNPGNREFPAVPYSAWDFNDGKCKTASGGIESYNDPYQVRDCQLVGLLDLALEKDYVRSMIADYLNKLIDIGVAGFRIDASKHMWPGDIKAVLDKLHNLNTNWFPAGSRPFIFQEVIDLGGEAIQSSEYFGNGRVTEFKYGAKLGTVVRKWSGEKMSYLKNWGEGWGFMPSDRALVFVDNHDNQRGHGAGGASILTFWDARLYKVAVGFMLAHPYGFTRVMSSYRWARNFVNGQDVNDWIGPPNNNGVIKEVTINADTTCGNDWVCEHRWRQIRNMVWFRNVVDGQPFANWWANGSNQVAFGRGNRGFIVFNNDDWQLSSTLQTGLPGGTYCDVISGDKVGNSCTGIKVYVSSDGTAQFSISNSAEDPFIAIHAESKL
Experiment: α-amylase enzyme activity assay, GalG2CNP conversion, UV/Vis detection of CNP at 405 nm
Assay type: biochemical
Details: (i) Kic and Kiu by global fit; [S] 10 µM; read-out: IC50 (Cheng−Prussoff, Equation (9))
pIC50: −log10 of the molar value.
Readout: pIC50

[[record]]
compound = "OC[C@H]1O[C@@H](Oc2cc3c(O)cc(O)cc3[o+]c2-c2cc(O)c(O)c(O)c2)[C@H](O)[C@@H](O)[C@@H]1O [Dpd-glc, delphinidin-3-glucoside]"
readout_number = 4.19

[[record]]
compound = "OC[C@H]1O[C@@H](Oc2cc3c(O)cc(O)cc3[o+]c2-c2ccc(O)c(O)c2)[C@H](O)[C@@H](O)[C@@H]1O [Cyd-glc, cyanidin-3-glucoside]"
readout_number = 4.08

[[record]]
compound = "OC[C@H]1O[C@@H](Oc2cc3c(O)cc(O)cc3[o+]c2-c2ccc(O)cc2)[C@H](O)[C@@H](O)[C@@H]1O [Plg-glc, pelargonidin-3-glucoside]"
readout_number = 4.24

[[record]]
compound = "COc1cc(-c2[o+]c3cc(O)cc(O)c3cc2O[C@@H]2O[C@H](CO)[C@@H](O)[C@H](O)[C@H]2O)ccc1O [Peo-glc, peonidin-3-glucoside]"
readout_number = 3.95


* * *

target: α-amylase from porcine pancreas (Sus scrofa, UniProt P00690); construct: A saline suspension of α-amylase from porcine pancreas; purchased Sigma Aldrich (Steinheim, Germany) Lot #SLBN9170V (catalogue number not given); host or cells: porcine pancreas (tissue-derived); test: α-amylase enzyme activity assay, GalG2CNP conversion, UV/Vis detection of CNP at 405 nm; type: biochemical; details: (ii) independent fit, Equations (7) and (8)
Marks after values point to notes of the source that are not given here.
Readout: Kic/Kiu

[[record]]
molecule = "COc1cc(-c2[o+]c3cc(O)cc(O)c3cc2O[C@@H]2O[C@H](CO)[C@@H](O)[C@H](O)[C@H]2O)ccc1O [Peo-glc, peonidin-3-glucoside]"
result = "0.43 ± 0.04 **^a"

[[record]]
molecule = "OC[C@H]1O[C@@H](Oc2cc3c(O)cc(O)cc3[o+]c2-c2ccc(O)c(O)c2)[C@H](O)[C@@H](O)[C@@H]1O [Cyd-glc, cyanidin-3-glucoside]"
result = "0.56 *^a"

[[record]]
molecule = "OC[C@H]1O[C@@H](Oc2cc3c(O)cc(O)cc3[o+]c2-c2ccc(O)cc2)[C@H](O)[C@@H](O)[C@@H]1O [Plg-glc, pelargonidin-3-glucoside]"
result = "0.46 ± 0.13 ^a"

[[record]]
molecule = "OC[C@H]1O[C@@H](Oc2cc3c(O)cc(O)cc3[o+]c2-c2cc(O)c(O)c(O)c2)[C@H](O)[C@@H](O)[C@@H]1O [Dpd-glc, delphinidin-3-glucoside]"
result = "0.26 ± 0.13 ^a"


* * *

# reported pKi; entries follow
biological target: α-amylase from porcine pancreas (Sus scrofa); construct: A saline suspension of α-amylase from porcine pancreas; purchased Sigma Aldrich (Steinheim, Germany) Lot #SLBN9170V (catalogue number not given); host or cells: porcine pancreas (tissue-derived); experiment: α-amylase enzyme activity assay, GalG2CNP conversion, UV/Vis detection of CNP at 405 nm; format: biochemical; details: from apparent values; inhibitor c 25 µM; read-out: Kiu
pKi: −log10 of the molar value.
Readout: pKi

[[record]]
molecule = "OC[C@H]1O[C@@H](Oc2cc3c(O)cc(O)cc3[o+]c2-c2cc(O)c(O)c(O)c2)[C@H](O)[C@@H](O)[C@@H]1O [Dpd-glc, delphinidin-3-glucoside]"
readout_number = 3.63

[[record]]
molecule = "COc1cc(-c2[o+]c3cc(O)cc(O)c3cc2O[C@@H]2O[C@H](CO)[C@@H](O)[C@H](O)[C@H]2O)ccc1O [Peo-glc, peonidin-3-glucoside]"
readout_number = 3.60

[[record]]
molecule = "OC[C@H]1O[C@@H](Oc2cc3c(O)cc(O)cc3[o+]c2-c2ccc(O)c(O)c2)[C@H](O)[C@@H](O)[C@@H]1O [Cyd-glc, cyanidin-3-glucoside]"
readout_number = 3.85

[[record]]
molecule = "OC[C@H]1O[C@@H](Oc2cc3c(O)cc(O)cc3[o+]c2-c2ccc(O)cc2)[C@H](O)[C@@H](O)[C@@H]1O [Plg-glc, pelargonidin-3-glucoside]"
readout_number = 3.90


* * *

# reported Kmapp; entries follow
biological target: α-amylase from porcine pancreas (Sus scrofa, UniProt P00690); construct: A saline suspension of α-amylase from porcine pancreas; purchased Sigma Aldrich (Steinheim, Germany) Lot #SLBN9170V (catalogue number not given); host or cells: porcine pancreas (tissue-derived); experiment: α-amylase enzyme activity assay, GalG2CNP conversion, UV/Vis detection of CNP at 405 nm; type: biochemical; conditions: Michaelis Menten fit; inhibitor c 50 µM
Readout: Kmapp (µM)

[[record]]
molecule = "OC[C@H]1O[C@@H](Oc2cc3c(O)cc(O)cc3[o+]c2-c2ccc(O)cc2)[C@H](O)[C@@H](O)[C@@H]1O [Plg-glc, pelargonidin-3-glucoside]"
value_units = "µM"
readout_number = 325

[[record]]
molecule = "COc1cc(-c2[o+]c3cc(O)cc(O)c3cc2O[C@@H]2O[C@H](CO)[C@@H](O)[C@H](O)[C@H]2O)ccc1O [Peo-glc, peonidin-3-glucoside]"
value_units = "µM"
readout_number = 256

[[record]]
molecule = "OC[C@H]1O[C@@H](Oc2cc3c(O)cc(O)cc3[o+]c2-c2cc(O)c(O)c(O)c2)[C@H](O)[C@@H](O)[C@@H]1O [Dpd-glc, delphinidin-3-glucoside]"
value_units = "µM"
readout_number = 335

[[record]]
molecule = "OC[C@H]1O[C@@H](Oc2cc3c(O)cc(O)cc3[o+]c2-c2ccc(O)c(O)c2)[C@H](O)[C@@H](O)[C@@H]1O [Cyd-glc, cyanidin-3-glucoside]"
value_units = "µM"
readout_number = 300

